measured on: tyrosinase (enzyme EC 1.14.18,1, issue de champignon)
protocol notes: Tyrosinase inhibition test (L-dopa to dopachrome, read at 475 nm)
Assay type: biochemical
condition notes: bounds stated in running text for the tyrosinase inhibition tests under the conditions of the examples; read-out: CI50 (the source's name)
Method: Mélange A : l'échantillon à tester à différentes concentrations (200 μL), ainsi qu'un "contrôle" (tampon phosphate, pH 6,5), sont incubés pendant 30 minutes à 37°C en présence de tyrosinase (enzyme EC 1.14.18,1, issue de champignon; 200μL, 300 U/mL). Mélange B : 200 μL de L-dopa (2,5 mM) sont additionnés à 400 μL de tampon phosphate (pH 6,5). Après les 30 minutes d'incubation, le mélange A est ajouté au mélange B et la dopachrome produite est mesurée à 475 nm au bout d'une minute […].
recorded metric: IC50

query: # lookup: IC50 of Oc1ccc(C=Cc2cc(O)cc(O)c2)cc1 [Bloc II, resvératrol, reference compound]
result: > 60 µM
